test system: SK-MEL-2; test: Growth inhibition of human SK-MEL-2 cells incubated for 48 hrs by sulforhodamine B assay; format: functional; conditions: SK-MEL-2, 48 h, read-out: pGI50 (converted)
# maps each entry to its GI50
Measured Attribute: GI50

# Smiles Input, Readout Value
records = [
    ("c1ccc2[nH]c(-c3ccc(Nc4nc(N5CCCCC5)nc(N5CCOCC5)n4)cc3)nc2c1", "2340 nM"),
    ("Clc1ccc(-c2nc(Nc3ccc(-c4nc5ccccc5[nH]4)cc3)nc(N3CCOCC3)n2)cc1", "1820 nM"),
    ("c1ccc(-c2nc(Nc3ccc(-c4nc5ccccc5[nH]4)cc3)nc(N3CCOCC3)n2)cc1", "1950 nM"),
    ("Fc1ccc(-c2nc(Nc3ccc(-c4nc5ccccc5[nH]4)cc3)nc(N3CCOCC3)n2)cc1", "2340 nM"),
]

====

molecular target: Albumin (Bos taurus, UniProt P02769); experiment: Binding affinity to bovine serum albumin assessed as hyperchromicity in absorption spectra up to 20 uM after 5 mins by UV-visible spectroscopic analysis relative to control; assay type: ADME; conditions: cattle, isolated protein
Sequence (P02769 whole entry): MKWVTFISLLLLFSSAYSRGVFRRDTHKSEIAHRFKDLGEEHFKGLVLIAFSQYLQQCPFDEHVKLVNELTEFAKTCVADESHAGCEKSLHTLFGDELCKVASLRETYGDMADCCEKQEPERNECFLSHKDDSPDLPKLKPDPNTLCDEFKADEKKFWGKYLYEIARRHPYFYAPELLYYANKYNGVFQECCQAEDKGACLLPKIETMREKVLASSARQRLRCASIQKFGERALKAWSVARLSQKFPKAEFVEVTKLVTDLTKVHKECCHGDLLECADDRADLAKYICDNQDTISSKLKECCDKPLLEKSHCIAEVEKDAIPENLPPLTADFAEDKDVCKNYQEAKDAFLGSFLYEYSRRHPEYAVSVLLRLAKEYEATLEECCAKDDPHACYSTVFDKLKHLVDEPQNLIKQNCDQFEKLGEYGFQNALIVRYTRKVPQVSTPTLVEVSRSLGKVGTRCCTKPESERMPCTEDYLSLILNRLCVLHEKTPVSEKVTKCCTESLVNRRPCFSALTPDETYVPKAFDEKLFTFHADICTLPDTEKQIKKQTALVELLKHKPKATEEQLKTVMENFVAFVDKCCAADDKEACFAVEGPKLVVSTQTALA
Param label: returns yes when Activity < 70%, returns no otherwise, including exact equality.

# Smiles Input, Target Or System, Label Value
records = [
    ("OCCNc1nc(Nc2ccc(-c3nc4ccccc4[nH]3)cc2)nc(N2CCOCC2)n1", "Albumin (Bos taurus, UniProt P02769)", "no"),
    ("c1ccc2[nH]c(-c3ccc(Nc4nc(N5CCCC5)nc(N5CCOCC5)n4)cc3)nc2c1", "Albumin (Bos taurus, UniProt P02769)", "yes"),
    ("c1ccc2[nH]c(-c3ccc(Nc4nc(NCCN5CCOCC5)nc(N5CCOCC5)n4)cc3)nc2c1", "Albumin (Bos taurus, UniProt P02769)", "no"),
    ("Clc1ccc(-c2nc(Nc3ccc(-c4nc5ccccc5[nH]4)cc3)nc(N3CCOCC3)n2)cc1", "Albumin (Bos taurus, UniProt P02769)", "no"),
]

====

assay: Growth inhibition of human TK10 cells incubated for 48 hrs by sulforhodamine B assay; assay type: functional; conditions: TK-10, 48 h, read-out: TGI

# Smiles Input, Unit Of Measure, TGI
data = [
    ("c1ccc2[nH]c(-c3ccc(Nc4nc(N5CCCCC5)nc(N5CCOCC5)n4)cc3)nc2c1", "µM", 9.26),
    ("Fc1ccc(-c2nc(Nc3ccc(-c4nc5ccccc5[nH]4)cc3)nc(N3CCOCC3)n2)cc1", "µM", 8.54),
    ("Clc1ccc(-c2nc(Nc3ccc(-c4nc5ccccc5[nH]4)cc3)nc(N3CCOCC3)n2)cc1", "µM", 3.42),
    ("c1ccc(-c2nc(Nc3ccc(-c4nc5ccccc5[nH]4)cc3)nc(N3CCOCC3)n2)cc1", "µM", 3.76),
]

====

molecular target: Albumin (Bos taurus); assay: Binding affinity to bovine serum albumin assessed as binding constant in absorption spectra by Benesie-Hildebrand plot analysis; format: ADME; details: cattle, isolated protein
# maps each entry to its K

# Smiles Input, Target Or System, K
data = [
    ("NCCNc1nc(Nc2ccc(-c3nc4ccccc4[nH]3)cc2)nc(N2CCOCC2)n1", "Albumin (Bos taurus)", "6.3 ×10⁴ /M"),
    ("OCCN1CCN(c2nc(Nc3ccc(-c4nc5ccccc5[nH]4)cc3)nc(N3CCOCC3)n2)CC1", "Albumin (Bos taurus)", "1.2 ×10⁵ /M"),
    ("c1ccc2[nH]c(-c3ccc(Nc4nc(N5CCCCC5)nc(N5CCOCC5)n4)cc3)nc2c1", "Albumin (Bos taurus)", "9.7 ×10⁴ /M"),
    ("Fc1ccc(-c2nc(Nc3ccc(-c4nc5ccccc5[nH]4)cc3)nc(N3CCOCC3)n2)cc1", "Albumin (Bos taurus)", "1 ×10⁵ /M"),
    ("CN1CCN(c2nc(Nc3ccc(-c4nc5ccccc5[nH]4)cc3)nc(N3CCOCC3)n2)CC1", "Albumin (Bos taurus)", "8.5 ×10⁴ /M"),
]

====

assay: Growth inhibition of human HL-60(TB) cells incubated for 48 hrs by sulforhodamine B assay; assay type: functional; details: HL-60, 48 h, read-out: GI50
Measured Attribute: GI50 (nM)

# Smiles Input, Readout Value
records = [
    ("c1ccc2[nH]c(-c3ccc(Nc4nc(N5CCCCC5)nc(N5CCOCC5)n4)cc3)nc2c1", 2420),
    ("Fc1ccc(-c2nc(Nc3ccc(-c4nc5ccccc5[nH]4)cc3)nc(N3CCOCC3)n2)cc1", 1940),
    ("c1ccc(-c2nc(Nc3ccc(-c4nc5ccccc5[nH]4)cc3)nc(N3CCOCC3)n2)cc1", 31),
    ("Clc1ccc(-c2nc(Nc3ccc(-c4nc5ccccc5[nH]4)cc3)nc(N3CCOCC3)n2)cc1", 216),
]

====

system: SK-MEL-5; assay: Growth inhibition of human SK-MEL-5 cells assessed as cell growth at 10^-5 M incubated for 48 hrs by sulforhodamine B assay; format: functional; settings: SK-MEL-5, 48 h, read-out: Activity
Parameter: growth at 10 µM. Scope: all listed entries.
Measured Attribute: growth at 10 µM (%)

# Smiles Input, Measured Attribute, Readout Value
measured = [
    ("Fc1ccc(-c2nc(Nc3ccc(-c4nc5ccccc5[nH]4)cc3)nc(N3CCOCC3)n2)cc1", "growth at 10 µM", -87),
    ("c1ccc(-c2nc(Nc3ccc(-c4nc5ccccc5[nH]4)cc3)nc(N3CCOCC3)n2)cc1", "growth at 10 µM", -92),
    ("c1ccc2[nH]c(-c3ccc(Nc4nc(N5CCCCC5)nc(N5CCOCC5)n4)cc3)nc2c1", "growth at 10 µM", -90),
    ("Clc1ccc(-c2nc(Nc3ccc(-c4nc5ccccc5[nH]4)cc3)nc(N3CCOCC3)n2)cc1", "growth at 10 µM", -94),
]

====

Listed here: items and their measured GI50.
test: Growth inhibition of human Caki1 cells incubated for 48 hrs by sulforhodamine B assay; assay type: functional; settings: CAKI-1, 48 h, read-out: GI50

# Smiles Input, Unit Of Measure, GI50
data = [
    ("c1ccc(-c2nc(Nc3ccc(-c4nc5ccccc5[nH]4)cc3)nc(N3CCOCC3)n2)cc1", "µM", 1.28),
    ("c1ccc2[nH]c(-c3ccc(Nc4nc(N5CCCCC5)nc(N5CCOCC5)n4)cc3)nc2c1", "µM", 1.81),
    ("Clc1ccc(-c2nc(Nc3ccc(-c4nc5ccccc5[nH]4)cc3)nc(N3CCOCC3)n2)cc1", "µM", 1.41),
    ("Fc1ccc(-c2nc(Nc3ccc(-c4nc5ccccc5[nH]4)cc3)nc(N3CCOCC3)n2)cc1", "µM", 1.98),
]

====

test system: 786-0; test: Growth inhibition of human 786-0 cells incubated for 48 hrs by sulforhodamine B assay; type: functional; conditions: 786-0, 48 h, read-out: pGI50 (converted)
The following molecules are shown together with reported GI50 values.

# Smiles Input, GI50 / nM
data = [
    ("Clc1ccc(-c2nc(Nc3ccc(-c4nc5ccccc5[nH]4)cc3)nc(N3CCOCC3)n2)cc1", 178),
    ("c1ccc(-c2nc(Nc3ccc(-c4nc5ccccc5[nH]4)cc3)nc(N3CCOCC3)n2)cc1", 257),
    ("Fc1ccc(-c2nc(Nc3ccc(-c4nc5ccccc5[nH]4)cc3)nc(N3CCOCC3)n2)cc1", 1450),
    ("c1ccc2[nH]c(-c3ccc(Nc4nc(N5CCCCC5)nc(N5CCOCC5)n4)cc3)nc2c1", 1550),
]

====

molecular target: Albumin (Bos taurus, UniProt P02769); assay: Binding affinity to bovine serum albumin assessed as enhancement in emission spectra up to 20 uM by fluorescence spectroscopic analysis relative to control; format: ADME; settings: cattle, isolated protein
Measured Attribute: Activity (%)

# Smiles Input, Measured Attribute, Readout Value
data = [
    ("c1ccc2[nH]c(-c3ccc(Nc4nc(NC5CCCCC5)nc(N5CCOCC5)n4)cc3)nc2c1", "Activity", 23.12),
    ("OCCN1CCN(c2nc(Nc3ccc(-c4nc5ccccc5[nH]4)cc3)nc(N3CCOCC3)n2)CC1", "Activity", 73.21),
    ("NCCNc1nc(Nc2ccc(-c3nc4ccccc4[nH]3)cc2)nc(N2CCOCC2)n1", "Activity", 69.01),
    ("OCCNc1nc(Nc2ccc(-c3nc4ccccc4[nH]3)cc2)nc(N2CCOCC2)n1", "Activity", 71.82),
    ("c1ccc2[nH]c(-c3ccc(Nc4nc(N5CCOCC5)nc(N5CCOCC5)n4)cc3)nc2c1", "Activity", 63.43),
]

====

tested on: SK-MEL-5; experiment: Growth inhibition of human SK-MEL-5 cells incubated for 48 hrs by sulforhodamine B assay; assay type: functional; details: SK-MEL-5, 48 h, read-out: TGI
Measured Attribute: TGI

# Smiles Input, Readout Value
data = [
    ("Clc1ccc(-c2nc(Nc3ccc(-c4nc5ccccc5[nH]4)cc3)nc(N3CCOCC3)n2)cc1", "3.13 µM"),
    ("Fc1ccc(-c2nc(Nc3ccc(-c4nc5ccccc5[nH]4)cc3)nc(N3CCOCC3)n2)cc1", "3.36 µM"),
    ("c1ccc2[nH]c(-c3ccc(Nc4nc(N5CCCCC5)nc(N5CCOCC5)n4)cc3)nc2c1", "3.3 µM"),
    ("c1ccc(-c2nc(Nc3ccc(-c4nc5ccccc5[nH]4)cc3)nc(N3CCOCC3)n2)cc1", "3.15 µM"),
]
